Record form. Attribute: IC50. Fill in for each entry.
# Tested on: HIV-1 NL4-3(36G)V38A,N42D
# experimental_context: T20-resistant NL4-3(36G)V38A,N42D; p24 ELISA; mean ± SD
Answers are plain numbers, in µM.

- molecule: "Cc1cc(/C=C2\\SC(=S)N(Cc3ccccc3C(F)(F)F)C2=O)c(C)n1-c1ccc(O)c(C(=O)O)c1 [NSPD-12m]"
  unit_text: "µM"
  meas_value: 22.4

Then this molecule:
Given the molecule `COc1ccc(S(=O)(=O)[O-])cc1N=Nc1c(S(=O)(=O)[O-])cc2cc(Nc3nc(Nc4ccccc4)nc(Nc4cc(C)c(N=Nc5cc(S(=O)(=O)[O-])cc6cc(S(=O)(=O)[O-])cc(O)c56)cc4OC)n3)ccc2c1O.[Na+].[Na+].[Na+].[Na+]` , what is its reported IC50?
0.65

====

# protocol_details: XTT assay, MT-2 cells
# Type: cell-based
# experimental_context: human
value_kind: CC90 at 3 days (µM)
Answers are plain numbers, in µM.

Given the compound Cc1cc(/C=C2\SC(=S)N(Cc3ccccc3C(F)(F)F)C2=O)c(C)n1-c1ccc(O)c(C(=O)O)c1 [NSPD-12m] , what is its reported CC90 at 3 days?
124

====

# assay_target: synthetic peptide N36 (gp41 NHR) (Human immunodeficiency virus type 1 group M subtype B)
# Sequence (P04578 546-581): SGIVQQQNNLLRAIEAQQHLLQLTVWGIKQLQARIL
value_kind: pKd
One number for each entry, as −log10 of the molar value.

Given the compound Cc1cc(/C=C2\SC(=S)N(Cc3ccccc3C(F)(F)F)C2=O)c(C)n1-c1ccc(O)c(C(=O)O)c1 [NSPD-12m] , what is its reported pKd?
6.39

====

# protocol_details: XTT assay, TZM-bl cells
# Format: cell-based
# experimental_context: human
value_kind: CC90 at 3 days (µM)
Numbers only, in µM.

Given the molecule Cc1cc(/C=C2\SC(=S)N(Cc3ccccc3C(F)(F)F)C2=O)c(C)n1-c1ccc(O)c(C(=O)O)c1 [NSPD-12m] , what is its reported CC90 at 3 days?
118

====

# protocol_details: XTT assay, CHO-WT cells
# Format: cell-based
# experimental_context: Chinese hamster
# Experimental: The in vitro cell viability of NSPD-12m on HIV-1 target cells (U87-CD4-CXCR4, U87-CD4-CCR5, TZM-bl, and MT-2 cells) and HIV effector cells (CHO-WT cells) was analyzed by an XTT colorimetric assay. Briefly, 100 µl of 5 × 10^5/ml cells was mixed and incubated with 100 µl of NSPD-12m at graded concentrations at 37°C for 3 days. […] The absorbance at 450 nm was measured with an ELISA reader. […]
value_kind: CC50 at 3 days (µM)
Answers are plain numbers, in µM.

Given the compound Cc1cc(/C=C2\SC(=S)N(Cc3ccccc3C(F)(F)F)C2=O)c(C)n1-c1ccc(O)c(C(=O)O)c1 [NSPD-12m] , what is its reported CC50 at 3 days?
60

====

# Test system: HIV-1 93/BR/020
# protocol_details: microbe, parasite or virus in culture
# Format: cell-based
# experimental_context: Human immunodeficiency virus 1; primary strain 93/BR/020; luciferase readout; mean ± SD
value_kind: IC50 (µM)
Answers are plain numbers, in µM.

Given the compound Cc1cc(/C=C2\SC(=S)N(Cc3ccccc3C(F)(F)F)C2=O)c(C)n1-c1ccc(O)c(C(=O)O)c1 [NSPD-12m] , what is its reported IC50?
4.91

Cited source: paper PMC6688628
